- study_system: 5-lipoxygenase/FLAP (Homo sapiens, UniProt P09917+P20292)
- Sequence (P09917 whole entry): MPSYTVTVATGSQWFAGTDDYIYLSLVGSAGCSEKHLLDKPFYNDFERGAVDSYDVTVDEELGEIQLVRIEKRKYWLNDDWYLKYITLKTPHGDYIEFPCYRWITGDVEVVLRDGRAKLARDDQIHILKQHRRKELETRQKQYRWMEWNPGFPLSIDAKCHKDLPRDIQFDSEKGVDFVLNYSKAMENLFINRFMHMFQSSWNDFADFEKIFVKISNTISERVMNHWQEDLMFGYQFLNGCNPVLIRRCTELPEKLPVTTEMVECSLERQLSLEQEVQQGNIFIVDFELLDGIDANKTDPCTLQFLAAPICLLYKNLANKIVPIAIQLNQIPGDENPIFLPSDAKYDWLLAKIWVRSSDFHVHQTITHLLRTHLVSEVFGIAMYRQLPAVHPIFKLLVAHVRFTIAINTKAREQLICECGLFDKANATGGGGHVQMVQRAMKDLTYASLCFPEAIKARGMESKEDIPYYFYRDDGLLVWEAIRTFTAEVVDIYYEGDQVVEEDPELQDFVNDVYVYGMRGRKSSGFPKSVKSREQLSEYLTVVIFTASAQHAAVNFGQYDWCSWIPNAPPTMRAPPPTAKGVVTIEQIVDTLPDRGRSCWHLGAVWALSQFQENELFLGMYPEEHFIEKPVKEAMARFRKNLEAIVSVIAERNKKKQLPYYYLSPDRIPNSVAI
- Sequence (P20292 whole entry): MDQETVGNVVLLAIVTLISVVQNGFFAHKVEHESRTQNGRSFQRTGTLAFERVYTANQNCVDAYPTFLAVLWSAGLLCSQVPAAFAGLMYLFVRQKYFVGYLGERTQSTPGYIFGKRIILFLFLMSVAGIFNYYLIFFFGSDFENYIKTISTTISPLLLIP
- assay: Human whole blood was stimulated with calcium ionophore (A23187) and LTB 4 measured by enzyme immunoassay
- Type: functional, tissue-based
readout_type: pIC50
Recall that pIC50 is obtained by taking minus log10 of the concentration measured in molar.

Recorded results for 4 compounds are shown here.
INSERT INTO measurements (compound, study_system, readout_type, assay_result) VALUES
  ('CC(C)(C)Sc1c(CC(C)(C)C(=O)O)n(Cc2ccc(Cl)cc2)c2ccc(OCc3cccnc3)cc12', '5-lipoxygenase/FLAP (Homo sapiens, UniProt P09917+P20292)', 'pIC50', 5.96),
  ('CC(C)c1ccc2c(c1)c(SC(C)(C)C)c(CC(C)(C)CNC(N)=O)n2Cc1ccc(Cl)cc1', '5-lipoxygenase/FLAP (Homo sapiens, UniProt P09917+P20292)', 'pIC50', 6.01),
  ('CC(C)c1ccc2c(c1)c(SC(C)(C)C)c(CC(C)(C)NC(=O)N(C)O)n2Cc1ccc(Cl)cc1', '5-lipoxygenase/FLAP (Homo sapiens, UniProt P09917+P20292)', 'pIC50', 5.89),
  ('CC(C)(C)Sc1c(CC(C)(C)C(=O)O)n(Cc2ccc(Cl)cc2)c2ccc(OCc3ccncc3)cc12', '5-lipoxygenase/FLAP (Homo sapiens, UniProt P09917+P20292)', 'pIC50', 6.08);

Next item in the queue.
Quote pIC50 reported for CC(C)c1ccc2c(c1)c(SC(C)(C)C)c(CC(C)(C)/C=N/OCC(=O)O)n2Cc1ccc(Cl)cc1 please.
6.17

This collection of values is drawn from ChEMBL document CHEMBL1129110.
